Data origin: patent US20080269258A1

Test system: guanine riboswitch RNA (GR)
assayMethodText: Isothermal titration calorimetry, guanine riboswitch RNA
Type: binding, B. subtilis
appliedConditions: 50 mM K+HEPES, 100 mM KCl, 10 mM MgCl2, 30° C.
Entries and their measured ΔS follow.

[
  {
    "compound": "Nc1ncc2[nH]cnc2n1 [2-Aminopurine]",
    "units": "cal/mol · deg",
    "ΔS": "−129"
  },
  {
    "compound": "Nc1nc(Cl)c2nc[nH]c2n1 [6-Chloroguanine]",
    "units": "cal/mol · deg",
    "ΔS": "−116"
  },
  {
    "compound": "Nc1nc2nc[nH]c2c(=S)[nH]1 [6-Thioguanine]",
    "units": "cal/mol · deg",
    "ΔS": "−101"
  },
  {
    "compound": "Nc1nc2c(c(=O)[nH]1)CC=N2 [7-Deazaguanine]",
    "units": "cal/mol · deg",
    "ΔS": "−105"
  },
  {
    "compound": "O=c1[nH]c(=O)c2[nH]cnc2[nH]1 [Xanthine]",
    "units": "cal/mol · deg",
    "ΔS": "−94.4"
  },
  {
    "compound": "CSc1nc(N)nc2nc[nH]c12 [6-Methylthioguanine]",
    "units": "cal/mol · deg",
    "ΔS": "−46.9"
  }
]
